# Organism: Rattus norvegicus
# assay-procedure: Open TG-GATES - Regimen: Single
# Type: toxicity, organism-based, Sprague-Dawley
# Design: regimen Single, gender Male, age 6 weeks
# test-conditions: in vivo, po, 0 mg/kg, 6 h, tissue Blood, route gavage, dose level Control
quantity-name: MCV (fL)

compound | result
C[C@]12CCC(=O)C=C1CC[C@@H]1[C@@H]2CC[C@@]2(C)[C@H]1CC[C@]2(C)O | 63.4
CC(=N)S [THIOACETAMIDE] | 65.2
O=C(O)c1cccnc1 | 62.9
CCc1oc2ccccc2c1C(=O)c1cc(I)c(O)c(I)c1 | 65.1
CN1C(=O)OC(C)(C)C1=O | 64.4
C[C@](N)(Cc1ccc(O)c(O)c1)C(=O)O | 64.5
CC(=O)Oc1cc(C(C)C)c(OCCN(C)C)cc1C | 61.9
O=C(N[C@H](CO)[C@H](O)c1ccc([N+](=O)[O-])cc1)C(Cl)Cl | 70.1
CC(C)C(=O)Nc1ccc([N+](=O)[O-])c(C(F)(F)F)c1 [FLUTAMIDE] | 63.3
CCSCC[C@H](N)C(=O)O | 62.5
Nc1nc(N)c2nc(-c3ccccc3)c(N)nc2n1 | 64.8
CCN1CCCC1CNC(=O)c1cc(S(N)(=O)=O)ccc1OC (stereo not given) [SULPIRIDE] | 64.1
C#C[C@]1(O)CC[C@H]2[C@@H]3CCc4cc(O)ccc4[C@H]3CC[C@@]21C | 63.4
CC(C)(S)[C@@H](N)C(=O)O | 63.7
Oc1ncnc2[nH]ncc12 | 66.3
